Attribution: PubChem BioAssay AID893

Biological target: 3-hydroxyacyl-CoA dehydrogenase type-2 (Homo sapiens)
Assay: qHTS Assay for Inhibitors of HSD17B4, hydroxysteroid (17-beta) dehydrogenase 4;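 note: the protocol describes HADH2 (HSD17B10) and not the HSD17B4 of the title; nearly all actives have a fitted effect of over 70% in size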
Settings: recombinant HSD17B10, NADH fluorescence kinetic; series mostly up to 57.1 µM
About 5,700 (7.6%) of roughly 75,000 compounds were called active. Inconclusive results (about 7%) are left out. Calls come from the whole dose curve; as a rule, active = well fitted inhibition curve with a large enough effect; inconclusive = small, poorly fitted or top-dose-only effect; inactive = no such curve, though single readings can be large or run the other way. The list comes from a sample in which actives are over-represented; it also holds close analogues and randomly drawn compounds.
Just give me one of these, please: YES = active, NO = inactive

I'd appreciate the recorded outcome for O=C(OCC(=O)c1cccs1)C1=COCCO1 from this test.
NO

Recorded call for CC(=O)Nc1ccc(N2CCOCC2)c(C(=O)Nc2cccc(C)c2)c1 ?
NO

// outcome(item) with item = COC(=O)CCCCCN1C(=O)NC(c2ccc(-c3ccccc3)cc2)C(C(=O)OCc2ccccc2)=C1C (stereo unspecified)
NO

For CC(=O)N1CCN(CCN=CC2=C(O)CC(C)(C)CC2=O)CC1 , what call appears in the results of this test?
NO

I'd appreciate the recorded outcome for Cc1c(S(=O)(=O)O)oc2c1C(=O)C(=O)c1c-2ccc2c1CCCC2(C)C from this test.
YES

Could you check what this test reported for O=C(CCS(=O)(=O)Cc1ccccc1F)NCCCN1CCCCC1 ?
NO

###

Target: 3-hydroxyacyl-CoA dehydrogenase type-2 (Homo sapiens)
Assay: qHTS Assay for Inhibitors of HSD17B4, hydroxysteroid (17-beta) dehydrogenase 4;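 note: the protocol describes HADH2 (HSD17B10) and not the HSD17B4 of the title; nearly all actives have a fitted effect of over 70% in size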
Details: recombinant HSD17B10, NADH fluorescence kinetic; series mostly up to 57.1 µM
In all, about 75,000 compounds went through this assay and about 5,700 (7.6%) were called active. About 7% were inconclusive and are not listed. Calls come from the whole dose curve; as a rule, active = well fitted inhibition curve with a large enough effect; inconclusive = small, poorly fitted or top-dose-only effect; inactive = no such curve, though single readings can be large or run the other way. Only a selection was taken, and actives are over-represented in it overall.
Outcomes you can answer with include only these: yes (active), no (inactive)

Can you look up the reported call for O=C(CSc1nnc2ccccn12)c1ccccc1 for me?
no

What was the test verdict on Brc1cccc(-c2nnc3n2CCC3)c1 ?
no

// return assay outcome for O=C(c1csnn1)N1CCC[C@@]2(CCN(Cc3nccs3)C2)C1
no

// outcome(item) with item = C[C@@H](C(=O)Nc1ccc2ccccc2c1)[C@@H]1C[C@@]1(C)[C@@H](NC(=O)c1cccnc1)c1ccccc1
no

Dear colleague, could you share the recorded outcome for CCC/C(O)=C1\C(=O)CC(C)(C)CC1=Nc1ccccc1OC when you have a moment?
no

Given Cn1c(SCC(=O)N2CCOCC2)nnc1-c1ccc(NC(=O)c2ccccc2F)cc1 , state the outcome it received in this test.
no

Which outcome was entered for the compound O=c1c2ccccc2oc2nc3n(c(=O)c12)CCCS3 in this test?
yes

Per the assay record, what outcome was assigned to CSc1nnc(-c2ccncc2)n1CCCN1CCCC1=O ?
no

Per the records of this test, what outcome belongs to CCOc1ccc2cc(C#N)c(SCC(=O)OC)nc2c1 ?
no

GET /call?item= O=c1c2ccccc2oc2nc(C3CCCCC3)n(Cc3ccco3)c(=O)c12 returns the recorded outcome of this test.
no

Returns: the outcome recorded for Cn1cccc1C(=O)NC(=O)COC(=O)Cc1coc2ccc3ccccc3c12 in this assay.
yes

Could you kindly confirm the outcome this assay logged for O=C(CN1C2CCC1CC(NC(=O)C1CC1)C2)NCc1ccccc1 (configuration not stated) ?
no

# outcome recorded in this test, key = N[C@H](C(=O)O)c1ccc(C(=O)O)c(O)c1
yes

Tell me the assay call for Cc1ccc(S(=O)(=O)NCc2nc3ccccc3c(=O)n2N)cc1 please.
no

Which outcome did this test record for the compound O=C(NC1CCCC1)c1ccc(Br)s1 ?
no

# lookup: test call for CC(C)CCNC(=O)CCNS(=O)(=O)c1ccc(Cl)cc1
no

What did this assay record as the result for CCCc1[nH]nc2c1C(c1ccc(Br)s1)C(C#N)=C(N)O2 (configuration not stated) ?
yes

###

Target: 3-hydroxyacyl-CoA dehydrogenase type-2 (Homo sapiens) (UniProt Q99714)
Test: qHTS Assay for Inhibitors of HSD17B4, hydroxysteroid (17-beta) dehydrogenase 4;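 note: the protocol describes HADH2 (HSD17B10) and not the HSD17B4 of the title; nearly all actives have a fitted effect of over 70% in size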
Settings: recombinant HSD17B10, NADH fluorescence kinetic; series mostly up to 57.1 µM
Out of some 75,000 compounds screened, about 5,700 (7.6%) were called active. Not shown: some 7% with an inconclusive outcome. Calls follow the shape of the dose curve; as a rule, active = well fitted inhibition curve with a large enough effect; inconclusive = small, poorly fitted or top-dose-only effect; inactive = no such curve, though single readings can be large or run the other way. The entries come from a sample that favours actives as a whole.
Could you please pick one outcome from this set? active, inactive

Hi, sorry to bother you, what did the test record for Cc1nc2c(C(=O)NCc3ccc4c(c3)OCO4)c[nH]n2c(=O)c1Cc1ccccc1F ?
active

Could you please tell me the result logged for CCOc1ccc(-c2nnc3ccc(SC)nn23)cc1 in this assay?
inactive

Identify the outcome logged in this assay for the molecule shown: CCOc1ccc(CNC(=O)C2CCC(=O)N2C2CCCC2)cc1OC (stereo not drawn)
inactive

Short answer needed: outcome of this test for CC(NC(=O)CN1CCN(Cc2ccc(Cl)cc2)C1=O)c1ccc2c(c1)OCCO2 (stereo not drawn) ?
inactive

Check the results log: what was the call for C=CCOC(=O)c1ccccc1C(=O)OCC=C ?
inactive

How was CCn1cc(C(=O)NCc2ccc3c(c2)OCO3)c2cc(OC)c(OC)cc2c1=O classified in this test?
inactive

Hi team, can someone confirm the assay call for COC(=O)c1ccc(C(NC(=O)OCc2ccccc2)/C(C)=C/[C@@H](C)C(=O)NCc2cc(C)on2)cc1 (stereo partly drawn) ?
inactive

Given CC(=O)OCC(=O)C1CCC2C3CCC4=CC(=O)CC[C@@]4(C)C3CC[C@]12C (stereo partly drawn) , state the outcome it received in this test.
inactive
